The values you see were collected from patent US9045393B2.

# Test system: rat motoneurons
# Protocol text: in vitro model of trophic deprivation of rat motoneurons (survival, calcein fluorescence)
# Format: cell-based
# Test parameters: concentration 3 μM; 3 days in basal medium, compared with medium supplemented with neurotrophic factors; ratio greater than 0 = positive effect
# Protocol: Useful reference may be made to the WO 0142784 Patent Application of the applicant on the cultivation of spinal cord motoneurons. The spinal cord of rat E14 embryos is dissected and the ventral portion is dissociated by trituration after trypsination. […] The activity of the compounds to be tested was evaluated by their capability of preventing death of motoneurons when they are added to the neurobasal medium as compared with survival of motoneurons in a medium supplemented with neurotrophic factors. […]
Please respond with reported Ratio (survival rate of the motoneurons) for every item in the list.
Give bare numbers.

>  <Molecule>
CC(C)CCCC(C)C1CCC2C3CCC(=NO)C(C)(CCC(C)(C)O)C3CCC12C (stereo not shown) [Compound 3]

>  <Ratio (survival rate of the motoneurons)>
0.7

$$$$

Report Ratio (survival rate of the motoneurons) for every entry below.
1. CON=C1CC[C@H]2[C@@H]3CC[C@H]([C@H](C)CCCC(C)C)[C@@]3(C)CC[C@@H]2[C@@]1(C)CCCO [Compound 6]
2. CNCCCC1(C)C(=NO)CCC2C1CCC1(C)C(C(C)CCCC(C)C)CCC21 (stereo not shown) [Compound 5]
3. CNC(=O)CCC1(C)C(=NO)CCC2C1CCC1(C)C(C(C)CCCC(C)C)CCC21 (stereo not shown) [Compound 1]

Result string:
[0.4, 0.3, 0.4]

###

# Test system: rat motoneurons
# Protocol text: in vitro model of trophic deprivation of rat motoneurons (survival, calcein fluorescence)
# Format: cell-based
# Test parameters: concentration 3 μM; 3 days in basal medium, compared with medium supplemented with neurotrophic factors; ratio greater than 0 = positive effect
Entry flag: condition met if Ratio (survival rate of the motoneurons) reaches 0.5; condition not met if it does not.

Observe how each entry below is paired with its result.
>  <Molecule>
CC(C)CCC[C@@H](C)[C@H]1CC[C@H]2[C@@H]3CC/C(=N\O)[C@](C)(CCCO)[C@H]3CC[C@]12C [Compound 11]

>  <Category label>
condition met

$$$$
>  <Molecule>
CC(C)CCCC(C)C1CCC2C3CCC(=O)C(C)(CCCO)C3CCC12C (stereo not shown) [Compound 10, 3,5-seco-4-nor-cholestan-5-one-3-ol]

>  <Category label>
condition met

$$$$
>  <Molecule>
CC(C)CCCC(C)C1CCC2C3CCC(O)C(C)(CCCO)C3CCC12C (stereo not shown) [Compound 9, 3,5-seco-4-nor-cholestane-3,5-diol]

>  <Category label>
condition not met

$$$$
>  <Molecule>
CC(C)CCCC(C)C1CCC2C3CCC(=NO)C(C)(CCC=NO)C3CCC12C (stereo not shown) [Compound 12]

>  <Category label>
condition met

$$$$
>  <Molecule>
CC(C)CCCC(C)C1CCC2C3CCC(=NO)C(C)(CCC(=O)O)C3CCC12C (stereo not shown) [Compound 8]

>  <Category label>
condition not met

$$$$

Query string: Form field: Ratio (survival rate of the motoneurons) at least 0.5? Entry: CC(C)CCCC(C)C1CCC2C3CCC(=NOCC(=O)O)C(C)(CCCO)C3CCC12C (stereo not shown) [Compound 7]
Result string: condition not met
